System: SK-OV-3
Assay Remarks: Antiproliferative activity against human SKOV3 cells after 72 hrs by MTT assay
Type: functional, cell-based
Test Context: SK-OV-3, 72 h
Under this convention, 1.0 denotes IC50 strictly below 10 µM and 0.0 denotes IC50 at or above 10 µM.

smiles_structure=O=C(Nc1cc(F)cc(F)c1)c1cc(=O)[nH]c2cc(Br)ccc12 class_name=0.0
smiles_structure=O=C(Nc1cccc(F)c1)c1cc(=O)[nH]c2cc(Br)ccc12 class_name=0.0
smiles_structure=O=C(Nc1cccc(F)c1)c1cc(=O)[nH]c2cc(C3=CCOCC3)ccc12 class_name=0.0
smiles_structure=O=C(Nc1cccc(F)c1)c1cc(=O)[nH]c2cc(-c3ccsc3)ccc12 class_name=1.0
smiles_structure=O=C(Nc1ccccn1)c1cc(=O)[nH]c2cc(Br)ccc12 class_name=0.0
smiles_structure=O=C(Nc1cccc(F)c1)c1cc(=O)[nH]c2cc(-c3ccc(F)cc3)ccc12 class_name=0.0
